# Settings: buffer; pH 7.4; 200.0 µM
Property Label: log10 solubility kinetic (log10 of the value in µg/mL)
Reminder: these figures are log10 of reported solubility kinetic, in µg/mL before transformation.

Per the records, this compound ( CC(C)c1ccc(S(=O)(=O)c2cnc(=S)[nH]c2N)cc1 ) has log10 solubility kinetic equal to -0.05

Per the records, this compound ( Cc1onc(-c2ccccc2)c1C(=O)OCC(=O)N(C)c1ccccc1 ) has log10 solubility kinetic equal to 1.59

Per the records, this compound ( O=C(COc1ccc2c(c1)OCO2)Nc1nccs1 ) has log10 solubility kinetic equal to 1.32

Per the records, this compound ( O=C(NCC1CCCCC1)c1ccc([N+](=O)[O-])cc1 ) has log10 solubility kinetic equal to 0.71

Per the records, this compound ( CC(C)(C)NS(=O)(=O)c1ccc2[nH]c3c(c2c1)CCCCC3 ) has log10 solubility kinetic equal to 0.94

Per the records, this compound ( c1ccc(N2CCN(Cc3ccc4c(c3)OCO4)CC2)nc1 ) has log10 solubility kinetic equal to 1.51

Per the records, this compound ( CC1(C(=O)OCC(=O)NCc2ccc(Cl)cc2)CC1(Cl)Cl (stereo not given) ) has log10 solubility kinetic equal to 1.72

Per the records, this compound ( COc1nc(SCC(=O)Nc2ccccc2Cl)nc(N(C)C)n1 ) has log10 solubility kinetic equal to 1.31

Per the records, this compound ( Cc1cc(=O)[nH]c(=O)n1Cc1ccccc1 ) has log10 solubility kinetic equal to 1.28

Per the records, this compound ( O=c1ccc2c([nH]1)CCCCCCCCCC2 ) has log10 solubility kinetic equal to 0.72

Per the records, this compound ( COc1ccc(NC(=S)NC(=O)c2cccnc2)cc1 ) has log10 solubility kinetic equal to 1.19

Per the records, this compound ( CC1Cc2cc(/C=C3/SC(=S)NC3=O)ccc2O1 (stereo not given) ) has log10 solubility kinetic equal to 0.97

Per the records, this compound ( N#C/C(=C\C=C\c1ccccc1[N+](=O)[O-])C(=O)NCc1ccccc1 ) has log10 solubility kinetic equal to 0.57
